Tested on: P388 leukemia ip, CD2F1 mice, survival T/C
Experiment notes: NCI In Vivo Anticancer Drug Screen. Data for tumor model P388 Leukemia (intraperitoneal) in CD2F1 (CDF1) mice
Settings: endpoint: median survival time; dose: 25.0 mg/kg/injection; schedule: Q01DX005 (ip); vehicle: saline with Tween-80
Inconclusive results and toxic doses are left out. Rule for the calls: active = survival T/C of 150% or more; inactive = T/C below 125% in these data.
Classes used: active, inactive

>>> print(df.to_string())
                                    molecule                                    target  group_label
 0               O=C(Nc1ccccc1)Sc1ccc(Cl)cc1  P388 leukemia ip, CD2F1 mice, survival T/C     inactive
 1  Cc1ccc(S(=O)(=O)Nc2ccc(-c3cc4cc(Cl)ccc4o3)cc2)cc1  P388 leukemia ip, CD2F1 mice, survival T/C     inactive
 2         NS(=O)(=O)c1cc(S(=O)(=O)Cl)ccc1Cl  P388 leukemia ip, CD2F1 mice, survival T/C     inactive
 3  C[C@]12CC[C@@H]3c4ccc(OCCCO)c([N+](=O)[O-])c4CC[C@H]3[C@@H]1CCC2=O  P388 leukemia ip, CD2F1 mice, survival T/C     inactive
 4  CCC1C2Cc3ccc(O)cc3C1(CC)CCN2C (configuration not stated)  P388 leukemia ip, CD2F1 mice, survival T/C     inactive
 5            CCn1c2ccccc2c2cc(NC(N)=S)ccc21  P388 leukemia ip, CD2F1 mice, survival T/C     inactive
 6  CN1c2ccccc2S(=O)(=O)n2c(COc3ccc(Cl)cc3)nnc21  P388 leukemia ip, CD2F1 mice, survival T/C     inactive
 7  Fc1cccc2c(C#Cc3ccccc3)c3ccccc3c(C#Cc3ccccc3)c12  P388 leukemia ip, CD2F1 mice, survival T/C     inactive
 8      CCc1nc(N)nc(N)c1-c1ccc(Cl)c(NN=NC)c1  P388 leukemia ip, CD2F1 mice, survival T/C     inactive
 9  CC(C)NC(=O)OCc1cn2c(c1COC(=O)NC(C)C)CCC2  P388 leukemia ip, CD2F1 mice, survival T/C     inactive
10  COc1cc2c(cc1CN(C)C)[nH]c1c3ccc(Cl)cc3ncc21  P388 leukemia ip, CD2F1 mice, survival T/C     inactive
11  COC(=O)C1C(=O)C(NC(=O)CCCCl)C(c2ccccc2)C(C(=O)OC)C1=O (configuration not stated)  P388 leukemia ip, CD2F1 mice, survival T/C     inactive
12  CCN(CCNc1ccc(C)c2sc3cc(Cl)ccc3c(=O)c12)CC(C)(C)O  P388 leukemia ip, CD2F1 mice, survival T/C     inactive
13  [O-][n+]1c(C2=C(N3CCCC3)c3ccccc3C2)c(Cl)c(Cl)c(Cl)c1C1=C(N2CCCC2)c2ccccc2C1  P388 leukemia ip, CD2F1 mice, survival T/C     inactive
14  CC(C)NC(=O)OCc1c(COC(=O)NC(C)C)c(Sc2ccccc2)n2c1CCC2  P388 leukemia ip, CD2F1 mice, survival T/C       active
15            O=c1cc2n(c(=O)n1Cc1ccccc1)CCC2  P388 leukemia ip, CD2F1 mice, survival T/C     inactive
16                  CC(C)N(c1nccc(F)n1)C(C)C  P388 leukemia ip, CD2F1 mice, survival T/C     inactive
17            CN1[C@H]2CC[C@@H]1[C@@H](O)CC2  P388 leukemia ip, CD2F1 mice, survival T/C     inactive
18  COc1ccc(CC(NC(=O)NSc2ccccc2)C(=O)NC2C(CO)OC(n3cnc4c(N(C)C)ncnc43)C2O)cc1 (configuration not stated)  P388 leukemia ip, CD2F1 mice, survival T/C     inactive
19  COc1cc2c(cc1OC)CN1CCc3cc(OC)c(OC)cc3[C@@H]1C2  P388 leukemia ip, CD2F1 mice, survival T/C     inactive
20  CC(=O)OCC1=C(c2ccccc2)S(=O)(=O)c2ccccc2C1=O  P388 leukemia ip, CD2F1 mice, survival T/C     inactive
21  O=[N+]([O-])c1ccc(N/N=C\c2c(Cl)n(-c3ccccc3)c3ccccc23)c([N+](=O)[O-])c1  P388 leukemia ip, CD2F1 mice, survival T/C     inactive

* * *

Tested on: P388 leukemia ip, CD2F1 mice, survival T/C
Experiment notes: NCI In Vivo Anticancer Drug Screen. Data for tumor model P388 Leukemia (intraperitoneal) in CD2F1 (CDF1) mice
Settings: endpoint: median survival time; dose: 12.5 mg/kg/injection; schedule: Q01DX009 (ip); vehicle: water; higher = longer survival
Inconclusive results and toxic doses are left out.
Measurement name: T/C

>>> df
                                   compound                                    target  recorded_measurement
0                   O=[N+]([O-])c1nccn1CCCO  P388 leukemia ip, CD2F1 mice, survival T/C       98 % of control
1         COc1ccc(CCNc2ccc(OC)c(OC)c2)cc1OC  P388 leukemia ip, CD2F1 mice, survival T/C       91 % of control
2  CCOC(=O)OCC1OC(OC(C)=O)C(OC(C)=O)C(OC(=O)OCC)C1OC(=O)OCC (centres undefined)  P388 leukemia ip, CD2F1 mice, survival T/C       95 % of control
3  O=C1C=C(C2OC(CI)C(O)C2O)C(=O)N1 (centres undefined)  P388 leukemia ip, CD2F1 mice, survival T/C      109 % of control

* * *

Tested on: P388 leukemia ip, CD2F1 mice, survival T/C
Experiment notes: NCI In Vivo Anticancer Drug Screen. Data for tumor model P388 Leukemia (intraperitoneal) in CD2F1 (CDF1) mice
Settings: endpoint: median survival time; dose: 25.0 mg/kg/injection; schedule: Q01DX009 (ip); vehicle: saline
Inconclusive results and toxic doses are left out. The calls were made as follows: active = survival T/C of 150% or more; inactive = T/C below 125% in these data.
Classes used: active, inactive

>>> print(df.to_string())
                                    molecule  group_label
 0       CC(C)(C)N1CC1CN (centres undefined)     inactive
 1      CC(CN1CCOCC1)(CN1CCOCC1)[N+](=O)[O-]     inactive
 2  CC1CN1P1(N2CC2C)=NP(N2CC2C)(N2CC2C)=NP(N2CC2C)(N2CC2C)=N1 (centres undefined)       active
 3  CC1CCC(C)N1P(=O)(N1CC1)N1CC1 (centres undefined)     inactive
 4                      C[S+](C)c1ccc(Cl)cc1     inactive
 5  CC(=O)C(C)OP(=O)(O)OCC[N+](C)(C)C (centres undefined)     inactive
 6        Clc1ccc(Cl)c(N=NNc2cc(Cl)ccc2Cl)c1     inactive
 7        O=C(Nc1ccc(Cl)c(Cl)c1)Sc1ccc(O)cc1     inactive
 8                      C1CC[N+]2(CC1)CCCCC2     inactive
 9  C#CC[N+]1(C)CCC=C(C(=O)OC)C1 (centres undefined)     inactive
10                     CC1(C)COCN1COC1CCCCC1     inactive
11                CC(/C=N/N=C(N)N)=N/N=C(N)N     inactive
12         c1ccc(Cc2cc[n+](Cc3ccccc3)cc2)cc1     inactive
13                   CCCCCCCCCC[N+](C)(C)CCO     inactive
14                Nc1nc[nH]c1-c1noc(=O)[nH]1     inactive
15                    C(=C\c1cccs1)/c1ccnnc1     inactive
16     O=c1oc2cc(N=Cc3ccccc3Cl)ccc2c2ccccc12     inactive
17  CC1(C)N=C(N)N=C(N)N1c1ccc(OCCCNC(=O)Nc2cccc(S(=O)(=O)F)c2)c(Cl)c1       active
18  CN(C/C=C/CN(C)C(=S)Nc1ccccc1)C(=S)Nc1ccccc1     inactive

* * *

Test system: P388 leukemia ip, CD2F1 mice, survival T/C
Experiment notes: NCI In Vivo Anticancer Drug Screen. Data for tumor model P388 Leukemia (intraperitoneal) in CD2F1 (CDF1) mice
Settings: endpoint: median survival time; dose: 60.0 mg/kg/injection; schedule: Q01DX005 (ip); vehicle: saline; higher = longer survival
Toxic doses and inconclusive results are not listed.
Measurement name: T/C

>>> print(df.to_string())
                                    compound                                    target  recorded_measurement
 0        O=C1NC(=O)C(=C2C(=O)COC2=O)C(=O)N1  P388 leukemia ip, CD2F1 mice, survival T/C      103 % of control
 1  CC(C)C1=CC2C3C(=O)NC(=O)C3C1C1C3C(=O)NC(=O)C3C21 (configuration not stated)  P388 leukemia ip, CD2F1 mice, survival T/C       98 % of control
 2  CN(C)CC(CN(C)C)C(O)c1ccccc1 (configuration not stated)  P388 leukemia ip, CD2F1 mice, survival T/C      109 % of control
 3  CCC1COc2nc(=O)c(C=NCCCN(C)C)c(N)n21 (configuration not stated)  P388 leukemia ip, CD2F1 mice, survival T/C      100 % of control
 4  O=C(O)C(Cc1c[nH]c2ccc(O)cc12)NCC1(O)OCC(O)C(O)C1O (configuration not stated)  P388 leukemia ip, CD2F1 mice, survival T/C       97 % of control
 5                    CN(C)C(=O)N1OC2CCC1CC2  P388 leukemia ip, CD2F1 mice, survival T/C      100 % of control
 6  O=C1C2C3CCC(O3)C2C(=O)N1CCO (configuration not stated)  P388 leukemia ip, CD2F1 mice, survival T/C       96 % of control
 7  Nc1c(S(=O)(=O)O)cc(Nc2cccc(S(=O)(=O)/C=C/S(=O)(=O)O)c2)c2c1C(=O)c1ccccc1C2=O  P388 leukemia ip, CD2F1 mice, survival T/C       99 % of control
 8  CC(O)C1OC(O)C2OC(C)(C)OC12 (configuration not stated)  P388 leukemia ip, CD2F1 mice, survival T/C       98 % of control
 9  COC(=O)C(CS[C@@H]1CCCC[C@H]1O)NC(C)=O (some centres not stated)  P388 leukemia ip, CD2F1 mice, survival T/C       96 % of control
10                              CCCN1CC=CCC1  P388 leukemia ip, CD2F1 mice, survival T/C      100 % of control
11   Cc1nc2c([N+](=O)[O-])cc(C(=O)O)cc2[nH]1  P388 leukemia ip, CD2F1 mice, survival T/C      100 % of control
